- Tested on: K-562 leukemia
- PROTOCOL TEXT: NCI-60 one-dose screen, 48 h
- STATED CONDITIONS: 10 µM unless noted
The panel holds about 83,000 compounds, 20% with a hit somewhere; the sample as a whole holds those more often. The source made the active and inactive calls. Rule for the calls: active = growth percent below 10; inactive = the rest.
A correct response names exactly one class from active, inactive

Examples from the recorded data:
# COMPOUND, GROUP
measured = [
    ("CC(=O)Nc1ccc(-n2cnc3cc(-c4ccc(O)cc4)ccc32)cc1C(F)(F)F", "inactive"),
    ("Cc1ccc(C(SCCNCc2cc(N(C)C)ccn2)(c2ccccc2)c2ccccc2)cc1", "active"),
]

-- ask Record lookup: outcome of this test for CC(=O)/C=C/c1cccc2c1C(=O)NC(C)(c1cc3cc(Br)ccc3oc1=O)N2 (centres undefined) ?
-- reply active

-- ask Record lookup: outcome of this test for CC(C)CCNC(=O)N/C(N)=N/c1nc2ccccc2s1 ?
-- reply inactive

* * *

- Test system: U251 CNS
- PROTOCOL TEXT: NCI-60 one-dose screen, 48 h (100 = growth as untreated, 0 = no growth, -100 = all killed)
- STATED CONDITIONS: 10 µM unless noted
Compounds without any hit were thinned out: in the full panel of roughly 83,000, 20% have a hit.
Returns the class for an entry based on its growth. Class ranges: low bracket = under 30%, middle bracket = from 30% up to 50%, high bracket = 50% and over

# COMPOUND, GROUP
measured = [
    ("Nc1cccc(SCc2cc3ccccc3[nH]c2=O)c1", "high bracket"),
]

-- ask Into which bin does this compound go? CN(C)CCn1c2ccccc2c2nc3ccc([N+](=O)[O-])cc3nc21
-- reply low bracket

-- ask Into which bin does this compound go? COc1ccc2[nH]c(O)c(N=NC(=O)COc3ccc(NC(=O)Nc4ccccc4)cc3)c2c1
-- reply low bracket

-- ask Into which bin does this compound go? COc1ccc2oc(=O)c(C3(C)NC(=O)c4c(/C=C/C(=O)OC(C)(C)C)cccc4N3)cc2c1 (stereo not given)
-- reply middle bracket

-- ask Into which bin does this compound go? CN(C)c1nc(NCCNS(=O)(=O)c2ccc(C3=Nc4c(N)nc(N)nc4NC(c4ccc(C(F)(F)F)cc4)C3)cc2)nc(Nc2ccc(F)cc2)n1 (stereo not given)
-- reply low bracket

-- ask Into which bin does this compound go? COc1ccc(NC(=O)Cn2c3c(sc2=O)[C@H]2[C@@H](O)[C@@H](O)[C@H](O)[C@@H]2CS3)cc1
-- reply high bracket

* * *

- Test system: MCF7 breast
- PROTOCOL TEXT: NCI-60 one-dose screen, 48 h (100 = growth as untreated, 0 = no growth, -100 = all killed)
- STATED CONDITIONS: 10 µM unless noted
About 83,000 compounds went through this panel and 20% of them were active in at least one assay; those are over-represented in the sample as a whole.
growth strictly under 20% means Yes; at 20% or over means No.

Examples from the recorded data:
# COMPOUND, GROUP
measured = [
    ("C#CCOc1ccc(/C=N/Nc2nc(-c3cc4cc(Br)ccc4oc3=O)cs2)cc1OC", "No"),
    ("COc1ccc(C(=O)/C=C/c2ccc3ccccc3c2)cc1S(N)(=O)=O", "Yes"),
    ("N#Cc1cnn(C(=O)c2ccccc2Br)c1NC(=O)c1ccc(Br)cc1Cl", "No"),
    ("Cc1ccc2c(N)c(C(=O)Nc3ccc(-c4ccccc4)cc3)sc2n1", "No"),
]

Shift focus to the following entry.
-- ask Hi there! Is growth for Cc1ccc2c(N)c(C(=O)Nc3ccc(OC(F)(F)F)cc3)sc2n1 below 20%, do you know?
-- reply No
